# key: entry, value: hTLR7-wt (LEC)
Target: human TLR7 (Homo sapiens, UniProt Q9NYK1)
Construct: expressed in transfected cells; host or cells: HEK293
Assay: TLR7 cellular NFκB-luc reporter assay
Type: cell-based
Parameters: unit not given here
Conditions: lowest effective concentration; HEK293 cells transiently transfected with TLR7 and NFκB-luc, 6 h incubation

Use the examples below as a reference point.
- smiles.structure: "CCCC[C@H](CO)Nc1nc(N)nc2c(F)cccc12"
  measurement.target: "human TLR7 (Homo sapiens, UniProt Q9NYK1)"
  result: ">25"
- smiles.structure: "CCCC[C@H](CO)Nc1nc(N)nc2c(F)c(F)ccc12"
  measurement.target: "human TLR7 (Homo sapiens, UniProt Q9NYK1)"
  result: ">100"
- smiles.structure: "CCCC[C@H](CO)Nc1nc(N)nc2c(OC)cccc12"
  measurement.target: "human TLR7 (Homo sapiens, UniProt Q9NYK1)"
  result: ">50"
- smiles.structure: "CCCC[C@H](CO)Nc1nc(N)nc2cccc(C)c12"
  measurement.target: "human TLR7 (Homo sapiens, UniProt Q9NYK1)"
  result: ">100"
- smiles.structure: "CCCC[C@H](CO)Nc1nc(N)nc2cccc(C(F)(F)F)c12"
  measurement.target: "human TLR7 (Homo sapiens, UniProt Q9NYK1)"
  result: ">100"
- smiles.structure: "CCCC[C@H](CO)Nc1nc(N)nc2cc(C(=O)OC)ccc12"
  measurement.target: "human TLR7 (Homo sapiens, UniProt Q9NYK1)"
  result: ">100"
- smiles.structure: "CCCC[C@H](COC(=O)C(C)C)Nc1nc(N)nc2c(C)cccc12"
  measurement.target: "human TLR7 (Homo sapiens, UniProt Q9NYK1)"
  result: ">25"
- smiles.structure: "CCCC[C@H](CO)Nc1nc(N)nc2cc(-c3nnco3)ccc12"
  measurement.target: "human TLR7 (Homo sapiens, UniProt Q9NYK1)"
  result: ">25"
- smiles.structure: "CSCC[C@H](CO)Nc1nc(N)nc2cccc(F)c12"
  measurement.target: "human TLR7 (Homo sapiens, UniProt Q9NYK1)"
  result: ">50"

Could you now look at the following molecule, please?
Suppose we examine the molecule "CCCC[C@H](CO)Nc1nc(N)nc2cc(C#N)ccc12" ; what hTLR7-wt (LEC) value has been reported?
>100

====

Target: human TLR8 (Homo sapiens)
Construct: expressed in transfected cells; host or cells: HEK293
Sequence (Q9NR97 27-1041): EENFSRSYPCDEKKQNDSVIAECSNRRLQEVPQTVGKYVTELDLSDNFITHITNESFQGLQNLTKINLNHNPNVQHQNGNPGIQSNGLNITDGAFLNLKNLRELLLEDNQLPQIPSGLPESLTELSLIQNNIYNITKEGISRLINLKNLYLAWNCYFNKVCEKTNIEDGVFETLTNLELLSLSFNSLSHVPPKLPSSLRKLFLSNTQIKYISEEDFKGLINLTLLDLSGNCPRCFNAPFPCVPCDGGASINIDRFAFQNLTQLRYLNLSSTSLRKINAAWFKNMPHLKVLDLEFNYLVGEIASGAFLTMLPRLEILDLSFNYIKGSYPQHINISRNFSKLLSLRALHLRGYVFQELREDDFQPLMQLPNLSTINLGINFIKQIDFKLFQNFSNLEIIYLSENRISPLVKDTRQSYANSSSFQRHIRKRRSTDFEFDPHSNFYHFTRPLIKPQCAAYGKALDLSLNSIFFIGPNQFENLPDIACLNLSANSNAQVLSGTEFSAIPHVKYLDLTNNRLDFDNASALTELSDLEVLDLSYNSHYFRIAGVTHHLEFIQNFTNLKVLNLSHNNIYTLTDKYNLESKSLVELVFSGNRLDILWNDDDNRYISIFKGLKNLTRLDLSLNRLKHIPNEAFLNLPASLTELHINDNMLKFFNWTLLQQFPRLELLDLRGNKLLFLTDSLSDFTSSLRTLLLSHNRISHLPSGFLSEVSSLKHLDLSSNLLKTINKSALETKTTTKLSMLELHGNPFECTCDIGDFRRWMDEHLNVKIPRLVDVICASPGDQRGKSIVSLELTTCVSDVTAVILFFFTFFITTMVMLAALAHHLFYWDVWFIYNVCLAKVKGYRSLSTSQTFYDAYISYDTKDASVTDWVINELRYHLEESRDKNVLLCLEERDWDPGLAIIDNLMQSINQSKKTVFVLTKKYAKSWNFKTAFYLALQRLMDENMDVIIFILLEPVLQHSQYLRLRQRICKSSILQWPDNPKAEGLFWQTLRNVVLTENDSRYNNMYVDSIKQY
Assay: TLR8 cellular NFκB-luc reporter assay
Type: cell-based
Parameters: unit not given here
Conditions: lowest effective concentration; HEK293 cells transiently transfected with TLR8 and NFκB-luc, 6 h incubation
assay.metric: hTLR8-wt (LEC)

I. CCCC[C@H](CO)Nc1nc(N)nc2c(Cl)cccc12 [Compound 106]
II. CCC[C@H](CO)Nc1nc(N)nc2c(C)cccc12 [Compound 104]
III. CCCC[C@H](COC(=O)C(C)C)Nc1nc(N)nc2c(C)cccc12 [Compound 109]
IV. CCCC[C@H](CO)Nc1nc(N)nc2cccc(C3CC3)c12 [Compound 99]
V. CCCC[C@H](CO)Nc1nc(N)nc2c(F)cccc12 [Compound 107]
Sort the items above by hTLR8-wt (LEC), starting with the smallest value. The response must list the labels following the requested ordering.
V, IV, III, I, II
(V: 0.11, IV: 0.35, III: 0.64, I: 2.72, II: 5.75)

P. CSCC[C@H](CO)Nc1nc(N)nc2cccc(F)c12 [Compound 118]
Q. CCCC[C@H](CO)Nc1nc(N)nc2c(C)cccc12 [Compound 105]
Identify the item whose hTLR8-wt (LEC) is the smaller number: P or Q Write down the label of the entry you select.
Q
(Q: 0.46, P: 0.7)

====

Molecular target: human TLR8 (Homo sapiens)
Construct: expressed in transfected cells; host or cells: HEK293
Assay: TLR8 cellular NFκB-luc reporter assay
Type: cell-based
Parameters: unit not given here
Conditions: lowest effective concentration; HEK293 cells transiently transfected with TLR8 and NFκB-luc, 6 h incubation
assay.metric: hTLR8-wt (LEC)

- molecule: "CC[C@H](C)[C@H](CO)Nc1nc(N)nc2cccc(F)c12 [Compound 119]"
  measurement.target: "human TLR8 (Homo sapiens)"
  hTLR8-wt (LEC): 0.09

I. CCCC[C@H](CO)Nc1nc(N)nc2cc(C(=O)OC)ccc12 [Compound 116]
II. CCCC[C@H](CO)Nc1nc(N)nc2cc(C#N)ccc12 [Compound 102]
III. CCCC[C@H](CO)Nc1nc(N)nc2cc(-c3nnco3)ccc12 [Compound 103]
Descending sort on hTLR8-wt (LEC) required. Form entry: labels listed in requested order.
I, III, II

====

Molecular target: human TLR7 (Homo sapiens, UniProt Q9NYK1)
Construct: expressed in transfected cells; host or cells: HEK293
Sequence (Q9NYK1 27-1049): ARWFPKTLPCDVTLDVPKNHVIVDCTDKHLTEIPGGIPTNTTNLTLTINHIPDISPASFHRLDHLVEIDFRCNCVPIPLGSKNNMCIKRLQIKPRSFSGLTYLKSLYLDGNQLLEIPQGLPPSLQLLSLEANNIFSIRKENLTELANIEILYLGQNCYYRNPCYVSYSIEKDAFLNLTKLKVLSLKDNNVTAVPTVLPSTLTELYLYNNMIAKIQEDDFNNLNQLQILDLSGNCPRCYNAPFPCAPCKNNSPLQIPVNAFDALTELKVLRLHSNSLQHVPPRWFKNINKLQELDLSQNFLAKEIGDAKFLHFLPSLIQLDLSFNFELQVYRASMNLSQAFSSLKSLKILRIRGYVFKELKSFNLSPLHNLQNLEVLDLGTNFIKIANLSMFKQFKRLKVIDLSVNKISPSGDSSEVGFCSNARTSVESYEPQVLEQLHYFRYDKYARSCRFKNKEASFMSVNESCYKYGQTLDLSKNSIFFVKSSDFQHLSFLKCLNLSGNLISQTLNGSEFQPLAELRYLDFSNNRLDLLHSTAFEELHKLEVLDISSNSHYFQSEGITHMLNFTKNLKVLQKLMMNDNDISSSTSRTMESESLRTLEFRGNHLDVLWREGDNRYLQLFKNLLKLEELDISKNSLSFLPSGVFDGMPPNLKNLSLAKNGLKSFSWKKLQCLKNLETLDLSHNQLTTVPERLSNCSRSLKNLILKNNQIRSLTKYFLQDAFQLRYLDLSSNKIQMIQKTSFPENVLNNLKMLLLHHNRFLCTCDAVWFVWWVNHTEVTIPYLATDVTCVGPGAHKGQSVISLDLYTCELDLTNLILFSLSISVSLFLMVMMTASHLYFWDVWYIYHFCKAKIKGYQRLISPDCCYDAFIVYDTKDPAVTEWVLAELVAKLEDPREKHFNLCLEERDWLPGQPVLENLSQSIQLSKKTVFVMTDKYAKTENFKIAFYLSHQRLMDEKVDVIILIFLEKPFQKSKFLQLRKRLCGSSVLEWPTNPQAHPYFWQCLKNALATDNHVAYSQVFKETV
Assay: TLR7 cellular NFκB-luc reporter assay
Type: cell-based
Design: unit not given here
Settings: lowest effective concentration; HEK293 cells transiently transfected with TLR7 and NFκB-luc, 6 h incubation
assay.metric: hTLR7-wt (LEC)

Reference set, count: 3
- compound: "CCC[C@H](CO)Nc1nc(N)nc2c(F)cccc12 [Compound 108]"
  assay.metric: "hTLR7-wt (LEC)"
  result: ">25"
- compound: "CCC[C@H](CO)Nc1nc(N)nc2c(C)cccc12 [Compound 104]"
  assay.metric: "hTLR7-wt (LEC)"
  result: ">25"
- compound: "CCCC[C@H](CO)Nc1nc(N)nc2c(C)cccc12 [Compound 105]"
  assay.metric: "hTLR7-wt (LEC)"
  result: ">25"

Fill blank: measured hTLR7-wt (LEC) of the compound CCCC[C@H](CO)Nc1nc(N)nc2c(Cl)cccc12 [Compound 106] is ____.
>25

Param item: CCCC[C@H](CO)Nc1nc(N)nc2cccc(C3CC3)c12 [Compound 99]
>100

Next up: CCCC[C@H](CO)Nc1nc(N)nc2cccc(F)c12 [Compound 100]
27.7

Now try CC[C@H](C)[C@H](CO)Nc1nc(N)nc2cccc(F)c12 [Compound 119] .
1.71

// repeat for CCCC[C@H](CO)Nc1nc(N)nc2cccc(Cl)c12 [Compound 113] and report
>100

====

Target: human TLR8 (Homo sapiens)
Construct: expressed in transfected cells; host or cells: HEK293
Experiment: TLR8 cellular NFκB-luc reporter assay
Format: cell-based
Design: unit not given here
Conditions: lowest effective concentration; HEK293 cells transiently transfected with TLR8 and NFκB-luc, 6 h incubation
assay.metric: hTLR8-wt (LEC)

Known results for molecules:
- molecule: "CCCC[C@H](CO)Nc1nc(N)nc2cc(F)ccc12 [Compound 111]"
  numeric.result: 0.04
- molecule: "CCCC[C@H](CO)Nc1nc(N)nc2c(F)c(F)ccc12 [Compound 117]"
  numeric.result: 0.41
- molecule: "CCC[C@H](CO)Nc1nc(N)nc2c(F)cccc12 [Compound 108]"
  numeric.result: 3.27

P. CCCC[C@H](CO)Nc1nc(N)nc2cccc(C(F)(F)F)c12 [Compound 101]
Q. CCCC[C@H](CO)Nc1nc(N)nc2cccc(F)c12 [Compound 100]
R. CCCC[C@H](CO)Nc1nc(N)nc2c(OC)cccc12 [Compound 115]
Rank entries according to their hTLR8-wt (LEC), from the largest number down. // ordering of labels required in reply
R, P, Q
(R: 3.74, P: 0.66, Q: 0.07)

Hello, the source for this data is patent US20220241402A1, in case you need it.
